These measurements were taken from patent US4070469A.

The entries below are paired with their reported concentration at 32 h.
# PROTOCOL DESCRIPTION: Residue of active compound in milk of the cow
# Type: in vivo
# RUN PARAMETERS: bovine, milk; 32 hrs; 500 mg in 7 ml P.E.G. base

| SMILES REPR | UNIT | concentration at 32 h |
| --- | --- | --- |
| CCOc1ccc2c(-c3ccc([N+](=O)[O-])o3)cc(C(=O)O)[n+]([O-])c2c1 | ng/mL | 5000 |
| COc1ccc2c(-c3ccc([N+](=O)[O-])o3)cc[n+]([O-])c2c1 | ng/mL | 5000 |

* * *

# Tested on: Strep.uberis
# PROTOCOL DESCRIPTION: Minimal bactericidal activity (MBC) in milk, field isolates
# Format: cell-based
# RUN PARAMETERS: Streptococcus uberis; in milk at pH 7.2 - 7.4; field isolate 60B; read-out: Minimal Bactericidal Activity (MBC), Strep.uberis 60B

| MOLECULE | MBC |
| --- | --- |
| O=C1OCCN1/N=C/c1ccc([N+](=O)[O-])o1 [Furazolidone, reference compound] | 10 µg/mL |
| O=C1OC(CN2CCOCC2)CN1/N=C/c1ccc([N+](=O)[O-])o1 (centres unmarked) [Furaltadone, reference compound] | 1 µg/mL |
| Cc1ccc2c(c1)c(-c1ccc([N+](=O)[O-])o1)cc(C)[n+]2[O-] | 5 µg/mL |
| CC(=O)Oc1ccc2c(-c3ccc([N+](=O)[O-])o3)cc(C)nc2c1 | 0.25 µg/mL |
| CCc1ccc2c(c1)c(-c1ccc([N+](=O)[O-])o1)cc(CC)[n+]2[O-] | 1 µg/mL |
| O=[N+]([O-])c1ccc(-c2ccc3ccccc3n2)o1 | > 10 µg/mL |
| O=C(c1cc(-c2ccc([N+](=O)[O-])o2)c2ccccc2n1)N1CCOCC1 | 5 µg/mL |
| CO[C@H]1/C=C/O[C@@]2(C)Oc3c(C)c(O)c4c(O)c(cc(O)c4c3C2=O)NC(=O)/C(C)=C\C=C\[C@H](C)[C@H](O)[C@@H](C)[C@@H](O)[C@@H](C)[C@H](OC(C)=O)[C@@H]1C [Rifamycin, reference compound] | 3.12 µg/mL |
| O=C(O)c1cc(-c2ccc([N+](=O)[O-])o2)c2ccccc2[n+]1[O-] | 0.015 µg/mL |
| O=[N+]([O-])c1ccc(-c2cc(C=NO)nc3ccccc23)o1 | 1 µg/mL |
| Cc1cc(-c2ccc([N+](=O)[O-])o2)c2ccccc2n1 | 10 µg/mL |
| CNN=Cc1cc(-c2ccc([N+](=O)[O-])o2)c2ccccc2n1 | 5 µg/mL |
| COc1cc2nc(C)cc(-c3ccc([N+](=O)[O-])o3)c2cc1N | 0.25 µg/mL |
| COc1ccc2c(-c3ccc([N+](=O)[O-])o3)cc(C)nc2c1 | 10 µg/mL |
| Cc1cc(-c2ccc([N+](=O)[O-])o2)c2ccc(Cl)cc2n1 | > 10 µg/mL |
| CCOc1ccc2c(-c3ccc([N+](=O)[O-])o3)cc(C=NO)nc2c1 | 5 µg/mL |
| O=[N+]([O-])c1ccc(-c2cc(CO)nc3ccccc23)o1 | 5 µg/mL |
